- System: LOX IMVI melanoma
- assay_protocol: NCI-60 one-dose screen, 48 h (100 = growth as untreated, 0 = no growth, -100 = all killed)
- condition_context: 10 µM
Compounds without any hit were thinned out: in the full panel of roughly 83,000, 20% have a hit.
Please provide measured growth for the entries that follow.
Answers are plain numbers, in %.

Would you please look over these solved cases?
compound: CCCCCCCCC(=O)OCCCC(CCC(CCC1CCCO1)OC(=O)CCCCCCCC)OC(=O)CCCCCCCC (centres undefined)
study_system: LOX IMVI melanoma
test_result: 98.6
//
compound: CC1(C)OCC(COC(c2ccccc2)(c2ccccc2)c2ccccc2)O1 (centres undefined)
study_system: LOX IMVI melanoma
test_result: 89.1
//
compound: Oc1c(Cl)cc(Cl)cc1C=NCC1CCC(CN=Cc2cc(Cl)cc(Cl)c2O)CC1 (centres undefined)
study_system: LOX IMVI melanoma
test_result: 69.6

Let us move to another entry and its growth.
Per the record, `Nc1nc(-c2ccccc2)nc(N)c1N=O` has growth of 66.7

* * *

- Test system: SF-295 CNS
- assay_protocol: NCI-60 one-dose screen, 48 h
- condition_context: 10 µM unless noted
This is part of a sample that, as a whole, favours compounds with a hit. Of some 83,000 tested, about 20% had one in any assay. The source made the active and inactive calls. The calls were made as follows: active = growth percent below 10; inactive = the rest.
Please state which outcome applies, choosing from 1 = active, 0 = inactive

Please review the entries below; each comes with its answer.
molecule: Oc1ccc(Cl)cc1C(c1cc(Cl)ccc1O)C(Cl)(Cl)Cl
qualitative_label: 0
--
molecule: COc1ccc(NC(=O)/C(=C/N2C(=O)/C(=C/c3ccc(OC)c(OC)c3)NC2=S)C(C)=O)cc1
qualitative_label: 0
--
molecule: O=C1C=CC(=O)N1c1ccc(O)cc1
qualitative_label: 0
--
molecule: N#Cc1c2ccccc2nc2ccccc12
qualitative_label: 0
--
molecule: CC[n+]1ccc(Nc2ccc(NC(=O)c3ccc(Nc4cc[n+](CC)c5ccc([N+](=O)[O-])cc45)cc3)cc2)cc1
qualitative_label: 0
--
molecule: O=C(c1ccccc1)C(Br)C(Br)c1ccccc1 (centres undefined)
qualitative_label: 0
--
molecule: CN1CCC(c2ccccc2)(c2ccccc2)C(=O)C1
qualitative_label: 0
--
molecule: CCCCCCN(CCCCCC)CCCNc1nccc2ccccc12
qualitative_label: 1
--
molecule: Nc1ccc(-c2ccc(N)c(S(=O)(=O)O)c2)cc1S(=O)(=O)O
qualitative_label: 0
--
molecule: CCCCCCCCCCCC[N+]1(CCCCCCCCCCCC)CCCC(C)C1 (centres undefined)
qualitative_label: 1

In: Would you mind telling me which call this test gave `CC(C)c1ccc(Nc2n[nH]c(=S)s2)cc1` ?
Out: 0

In: Name the outcome recorded for `CC(C)(C)c1ccc(O)c(Br)c1` in the assay.
Out: 0

In: Name the outcome recorded for `Oc1ccc(Nc2ccc3ccccc3c2)cc1` in the assay.
Out: 0

In: How did this test come out for `O=C1C=CC(=O)N1c1cccc2c1CCCC2` ?
Out: 0

* * *

- Tested on: ACHN renal
- assay_protocol: NCI-60 one-dose screen, 48 h (100 = growth as untreated, 0 = no growth, -100 = all killed)
- condition_context: 10 µM unless noted
The panel holds about 83,000 compounds, 20% with a hit somewhere; the sample as a whole holds those more often.
Provide the reported growth of each item.
Give bare numbers, in %.

molecule: CCC(C)C(N)C(=O)NC(CC(N)=O)C(=O)NC(CC(C)C)C(=O)NC(CCCCN)C(=O)NC(C)C(=O)NC(CC(C)C)C(=O)NC(C)C(=O)NC(C)C(=O)NC(CC(C)C)C(=O)NC(C)C(=O)NC(CCCCN)C(=O)NC(CCCCN)C(=O)NC(C(=O)NC(CC(C)C)C(N)=O)C(C)CC (configuration not stated)
study_system: ACHN renal
growth / %: 87.3
--
molecule: O=C1Nc2ccc(Br)cc2C1=O
study_system: ACHN renal
growth / %: 101
--
molecule: CC1(C)OCC(COC(c2ccccc2)(c2ccccc2)c2ccccc2)O1 (configuration not stated)
study_system: ACHN renal
growth / %: 97.6
--
molecule: Cc1ccc2c(c1)sc(-c1ccc(N(C)C)cc1)[n+]2C
study_system: ACHN renal
growth / %: 63.6
--
molecule: Nc1cc(-c2ccccc2)ccc1O
study_system: ACHN renal
growth / %: 104
--
molecule: CC1(O)CCCCCC1
study_system: ACHN renal
growth / %: 103

Would you mind listing growth for each of the following molecules?
1. O=C1C=CC(=O)N1c1cc(Cl)c(Cl)cc1Cl
2. c1ccc2sc(SSN3CC4CCC(CC4)C3)nc2c1
3. Oc1ccc2ccccc2c1N=Nc1ccccn1
4. Fc1ccc(NCCS)cc1

Out:
1: 96; 2: 98.3; 3: 11.9; 4: 105

For each of the molecules below, state growth.
1. Nc1nc(N)c2cc(Sc3cccc(C(F)(F)F)c3)ccc2n1
2. Cc1cc(C)c(C#N)c(Sc2nc(C)c([N+](=O)[O-])c(C)c2C#N)n1
3. Nc1ccc(Oc2ccccc2)c(Cl)c1
4. O=C(Cc1nc2cc(Cl)c(Cl)cc2nc1CC(=O)c1cccnc1)c1cccnc1
5. O=C1/C(=C/c2ccccn2)CCc2ccccc21
6. O=C(/C=C/C(Cl)(Cl)Cl)Nc1ccc(Cl)cc1
7. O=C(c1ccccc1)C(Br)[N+](=O)[O-] (configuration not stated)
8. Cc1cc(C)c([I+]c2c(C)cc(C)cc2C)c(C)c1

Out:
1: 26.6; 2: 39.3; 3: 101; 4: 60.9; 5: 104; 6: 104; 7: 86.8; 8: -16.1

Give growth for all molecules that follow.
1. CCCCCCCCCCCC[n+]1ccc2ccccc2c1
2. CCCCN(CCCC)CCCCCCCCCCO
3. COc1ccc(NC(=O)/C(=C/N2C(=O)/C(=C/c3ccc(OC)c(OC)c3)NC2=S)C(C)=O)cc1

Out:
13
97.1
79.6

Please look at the items below and tell me growth for each one, in order.
1. CC(/C=N/NC(N)=S)Cc1ccc(C(C)C)cc1 (configuration not stated)
2. CCCCCCC1N=C(N)N=C(N)N1c1cccc(Cl)c1 (configuration not stated)
3. C=C(C(N)=O)C(N)C(=O)O (configuration not stated)
4. CC(C)=C1C=C2CC[C@@H]3[C@](C)(CCC[C@@]3(C)C(=O)O)[C@H]2CC1
5. Cc1nc([N+](=O)[O-])c(Sc2nncc(-c3ccccc3)n2)n1C
6. CCN1/C(=C/C(C)=C/c2sc3ccc4ccccc4c3[n+]2CC)Sc2ccc3ccccc3c21
7. CC(=O)c1c(O)c(C)c(O)c2c1OC1=CC(=O)C(C(C)=O)C(=O)C12C (configuration not stated)

Out:
[103, 53.9, 108, 104, 62.6, -97.2, 89]

For every listed record, write down its growth.
1. CCCCCCCCCCCCCCCCCC[S+](C)CC (configuration not stated)
2. CN(C)CC(C)(CN(C)C)C(=O)/C=C/c1c(Cl)cccc1Cl
3. NC(=S)N/N=C/c1ncccc1O
4. O=C(c1ccc(O)c(Br)c1)c1ccc(O)c(Br)c1
5. O=C/C=C/c1ccc([N+](=O)[O-])cc1

Out:
16.2
-100
10.7
102
112

For each listed entry, give its growth.
1. O=C(/C(Cl)=N/O)c1ccc(-c2ccccc2)cc1
2. NC1=C(Br)C(=O)c2ncccc2C1=O

Out:
86.8
-7.81

For each entry beneath this line, provide reported growth.
1. S=C(SSC(=S)N1CCOCC1)N1CCOCC1
2. C(=N\Nc1ccc2ccccc2n1)/c1ccccn1

Out:
1. 98.3
2. 7.28
